// provenance: paper PMC6310132

target: N-ethylmaleimide-sensitive factor (NSF), pRSET-A fusion protein (mouse, UniProt P46460 1-744); assay: SPR
Sequence (P46460 whole entry, the tested form may be a part): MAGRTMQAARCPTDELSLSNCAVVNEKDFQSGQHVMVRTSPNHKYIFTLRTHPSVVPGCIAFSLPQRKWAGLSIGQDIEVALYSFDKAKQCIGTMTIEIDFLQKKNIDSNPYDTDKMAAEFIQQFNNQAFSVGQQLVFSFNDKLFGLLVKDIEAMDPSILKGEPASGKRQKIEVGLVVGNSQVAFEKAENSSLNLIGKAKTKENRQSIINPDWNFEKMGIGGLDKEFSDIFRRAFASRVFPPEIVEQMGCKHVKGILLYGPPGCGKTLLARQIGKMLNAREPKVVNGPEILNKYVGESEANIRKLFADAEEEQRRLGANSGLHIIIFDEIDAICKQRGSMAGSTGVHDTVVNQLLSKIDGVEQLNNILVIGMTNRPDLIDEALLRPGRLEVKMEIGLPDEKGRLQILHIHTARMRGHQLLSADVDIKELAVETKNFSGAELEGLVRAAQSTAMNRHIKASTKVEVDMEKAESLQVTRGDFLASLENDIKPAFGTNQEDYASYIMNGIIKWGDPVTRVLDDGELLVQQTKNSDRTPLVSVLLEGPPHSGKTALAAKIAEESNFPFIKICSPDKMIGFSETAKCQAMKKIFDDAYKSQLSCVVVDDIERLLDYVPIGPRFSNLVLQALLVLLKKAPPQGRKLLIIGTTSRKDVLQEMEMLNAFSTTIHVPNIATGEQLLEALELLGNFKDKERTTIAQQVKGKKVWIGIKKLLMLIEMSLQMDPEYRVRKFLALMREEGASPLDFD
pKd: −log10 of the molar value.
QUANTITY_KIND: pKd

# BINDER, MEASURED
measured = [
    ("rat organ of Corti dopamine D1A carboxy terminus, pRSET-A fusion protein (domain or fragment, UniProt P18901 338-425, looked up) QKAFSTLLGCYRLCPTTNNAIETVSINNNGAVVFSSHHEPRGSISKDCNLVYLIPHAVGSSEDLKKEEAGGIAKPLEKLSPALSVILD", 7.92),
]
